Where these numbers come from: patent US6506749B2

Measured melting point of individual entries
MEASURED ENDPOINT: melting point

>>> measured("Cl.Cn1cc(/C=N\\C(=N)NC2CCOCC2)cc(-c2ccccc2N)c1=O")
"210.7 to 211.9 °C"
>>> measured("COc1ccccc1-c1cc(/C=N\\C(=N)NC2CCOCC2)cn(C)c1=O.Cl")
"212 to 213.7 °C"
>>> measured("CC(C)(O)Cn1c(=O)c(-c2ccccc2Cl)cc2cnc(NC3CCOCC3)nc21 [Cpd 117]")
"189 to 191.5 °C"
>>> measured("Cn1c(=O)c(-c2ccccc2Cl)cc2cnc(NC3CCC(OC=O)CC3)nc21 (centres unmarked) [Cpd 4]")
"196.1 to 196.6 °C"
>>> measured("Cl.Cn1c(=O)c(-c2ccccc2Cl)cc2cnc(NC3CCC(CO)CC3)nc21 (centres unmarked)")
"153.6 to 157 °C"

* * *

Counter-ions that a name gives are not always drawn.
Measured melting point of individual entries
MEASURED ENDPOINT: melting point

>>> measured("Cl.Cn1c(=O)c(-c2ccccc2Cl)cc2cnc(N[C@H]3CC[C@H](NS(C)(=O)=O)CC3)nc21")
"260.9 to 261.1 °C"
>>> measured("Cn1c(=O)c(-c2ccccc2Cl)cc2cnc(N[C@H]3CC[C@H](N)CC3)nc21 (as salt: hydrochloride) [Example 13]")
"190.3 to 191.4 °C"
>>> measured("COC(=O)CN1CCC(Nc2ncc3cc(-c4ccccc4Cl)c(=O)n(C)c3n2)CC1.Cl")
"150 to 168 °C"
>>> measured("Cl.Cn1c(=O)c(-c2ccccc2Cl)cc2cnc(N[C@H]3CCCCNC3=O)nc21")
"140 to 144 °C"
>>> measured("Cn1c(=O)c(-c2ccccc2Cl)cc2cnc(NC3CCC4(CC3)OCCCO4)nc21")
"196.1 to 196.5 °C"
>>> measured("CO[C@H]1CC[C@H](N(C)c2ncc3cc(-c4ccccc4Cl)c(=O)n(C)c3n2)CC1.Cl")
"182.3 to 183.1 °C"
>>> measured("Cn1c(=O)c(-c2ccccc2Cl)cc2cnc(NC3(CO)CCCC3)nc21 (as salt: salt)")
"213.7 to 214.6 °C"
>>> measured("CCn1c(=O)c(-c2ccccc2Cl)cc2cnc(NC3CCS(=O)(=O)CC3)nc21.Cl")
"285.2 to 286.7 °C"
>>> measured("Cc1ccccc1-c1cc2cnc(NC3CCS(=O)(=O)CC3)nc2n(C)c1=O.Cl")
"240 to 258 °C"

* * *

Measured melting point of individual entries
Where a name gives a salt, the structure may show the parent alone.
MEASURED ENDPOINT: melting point

>>> measured("C[C@H](Nc1ncc2cc(-c3ccccc3Cl)c(=O)n(N)c2n1)C(C)(C)O.Cl")
"> 300 °C"
>>> measured("CN1CCN(Nc2ncc3cc(-c4ccccc4Cl)c(=O)n(C)c3n2)CC1")
"125.7 to 128.1 °C"
>>> measured("CS(=O)(=O)N1CCC(Nc2ncc3cc(-c4ccccc4Cl)c(=O)n(CC(F)(F)F)c3n2)CC1.Cl")
"148.6 to 151.6 °C"
>>> measured("Cc1ccccc1-c1cc2cnc(NC3CCN(S(=O)(=O)C(F)(F)F)CC3)nc2n(C)c1=O.Cl")
"153 to 162 °C"
>>> measured("Cl.Cn1c(=O)c(-c2ccccc2Cl)cc2cnc(NC3CCN(CC(F)(F)F)CC3)nc21")
"180 to 183 °C"
>>> measured("COC1CCC(Nc2ncc3cc(-c4ccccc4Cl)c(=O)n(C)c3n2)CC1.Cl (centres unmarked)")
"189 to 192 °C"
>>> measured("Cl.Cn1c(=O)c(-c2ccccc2Cl)cc2cnc(NC3CCN(C=O)CC3)nc21")
"143 to 148 °C"
>>> measured("Cl.O=c1c(-c2ccccc2Cl)cc2cnc(N[C@H]3CC[C@H](O)CC3)nc2n1CCO")
"210.5 to 212 °C"
>>> measured("Cl.Cn1c(=O)c(-c2ccccc2Cl)cc2cnc(NC3CCOC3)nc21 (centres unmarked)")
"193.9 to 194.5 °C"
>>> measured("Cn1c(=O)c(-c2ccccc2Cl)cc2cnc(N[C@H]3CC[C@H](NS(C)(=O)=O)CC3)nc21 (as salt: hydrochloride)")
"260.9 to 261.1 °C"
>>> measured("CS(=O)(=O)N1CCC(Nc2ncc3cc(-c4ccccc4Cl)c(=O)n(-c4ccc(F)cc4)c3n2)CC1 (as salt: HCl)")
"165 to 169 °C"
>>> measured("CS(=O)(=O)N[C@H]1CC[C@H](Nc2ncc3cc(-c4ccccc4Cl)c(=O)[nH]c3n2)CC1.Cl")
"> 300 °C"
>>> measured("O=C1CCC(Nc2ncc3cc(-c4ccccc4Cl)c(=O)n(CC(F)(F)F)c3n2)CC1 (as salt: hydrochloride)")
"251.2 to 252 °C"
>>> measured("CCS(=O)(=O)N1CCC(Nc2ncc3cc(-c4ccccc4Cl)c(=O)n(C)c3n2)CC1.Cl")
"144 to 150 °C"
>>> measured("COc1ccccc1-c1cc2cnc(NC3CCN(S(C)(=O)=O)CC3)nc2n(C)c1=O.Cl")
"202.7 to 204.3 °C"
>>> measured("Cl.O=c1[nH]c2nc(NC3CCOCC3)ncc2cc1-c1ccccc1Cl")
"> 300 °C"
>>> measured("CN(C)S(=O)(=O)N[C@H]1CC[C@H](Nc2ncc3cc(-c4ccccc4Cl)c(=O)n(C)c3n2)CC1.Cl")
"226.5 to 229 °C"
